ASSAYED_TARGET: Melanocortin receptor 3 (Homo sapiens, UniProt P41968)
Sequence (P41968 whole entry, the tested form may be a part): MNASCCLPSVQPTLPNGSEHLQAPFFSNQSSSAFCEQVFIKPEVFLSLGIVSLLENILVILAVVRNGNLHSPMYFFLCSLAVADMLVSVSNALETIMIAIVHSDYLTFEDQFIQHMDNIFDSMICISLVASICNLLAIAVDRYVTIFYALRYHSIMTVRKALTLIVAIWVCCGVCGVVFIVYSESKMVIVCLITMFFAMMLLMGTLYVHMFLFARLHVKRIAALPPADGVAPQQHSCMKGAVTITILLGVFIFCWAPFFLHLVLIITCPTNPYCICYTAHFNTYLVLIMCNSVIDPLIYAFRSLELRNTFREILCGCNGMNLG
METHOD_DESCRIPTION: Displacement of [125I]-NDP-alpha-MSH from human MC3R LBD expressed in HEK293 cell membranes incubated for 16 to 23 hrs in dark by scintillation proximity assay
Set-up: concentration or dose not given beside the values
REPORTED_CONDITIONS: concentration not given here
ASSAY_ENDPOINT: inhibition (%)

CC[C@H](C)[C@@H]1NC(=O)[C@@H]2CCCN2C(=O)[C@H](Cc2c[nH]c3ccccc23)N(C)C(=O)[C@H](CCCNC(=N)N)NC(=O)[C@@H](Cc2ccccc2)NC(=O)[C@H](Cc2cnc[nH]2)N(C)C(=O)[C@H]([C@@H](C)O)NC(=O)[C@@H]2CSSC[C@H](NC1=O)C(=O)N[C@@H](Cc1ccccc1)C(=O)N1CCC[C@H]1C(=O)N[C@@H](CC(=O)O)C(=O)NCC(=O)N[C@@H](CCCNC(=N)N)C(=O)N2; 100
CC[C@H](C)[C@@H]1NC(=O)[C@@H]2CCCN2C(=O)[C@H](Cc2c[nH]c3ccccc23)NC(=O)[C@H](CCCNC(=N)N)NC(=O)[C@@H](Cc2ccccc2)NC(=O)[C@H](Cc2cnc[nH]2)NC(=O)[C@H]([C@@H](C)O)NC(=O)[C@@H]2CSSC[C@H](NC1=O)C(=O)N[C@@H](Cc1ccccc1)C(=O)N1CCC[C@H]1C(=O)N[C@@H](CC(=O)O)C(=O)NCC(=O)N[C@@H](CCCNC(=N)N)C(=O)N2; 100
CC[C@H](C)[C@@H]1NC(=O)[C@@H]2CCCN2C(=O)[C@H](Cc2c[nH]c3ccccc23)NC(=O)[C@H](CCCNC(=N)N)NC(=O)[C@H](Cc2ccccc2)NC(=O)[C@H](Cc2cnc[nH]2)NC(=O)[C@H]([C@@H](C)O)NC(=O)[C@@H]2CSSC[C@H](NC1=O)C(=O)N[C@@H](Cc1ccccc1)C(=O)N1CCC[C@H]1C(=O)N[C@@H](CC(=O)O)C(=O)NCC(=O)N[C@@H](CCCNC(=N)N)C(=O)N2; 100
CC[C@H](C)[C@@H]1NC(=O)[C@@H]2CCCN2C(=O)[C@H](Cc2c[nH]c3ccccc23)NC(=O)[C@H](CCCNC(=N)N)N(C)C(=O)[C@@H](Cc2ccccc2)NC(=O)[C@H](Cc2cnc[nH]2)NC(=O)[C@H]([C@@H](C)O)NC(=O)[C@@H]2CSSC[C@H](NC1=O)C(=O)N[C@@H](Cc1ccccc1)C(=O)N1CCC[C@H]1C(=O)N[C@@H](CC(=O)O)C(=O)NCC(=O)N[C@@H](CCCNC(=N)N)C(=O)N2; 100
CC[C@H](C)[C@@H]1NC(=O)[C@@H]2CCCN2C(=O)[C@H](Cc2c[nH]c3ccccc23)NC(=O)[C@H](CCCNC(=N)N)N(C)C(=O)[C@@H](Cc2ccccc2)NC(=O)[C@H](Cc2cnc[nH]2)N(C)C(=O)[C@H]([C@@H](C)O)NC(=O)[C@@H]2CSSC[C@H](NC1=O)C(=O)N[C@@H](Cc1ccccc1)C(=O)N1CCC[C@H]1C(=O)N[C@@H](CC(=O)O)C(=O)NCC(=O)N[C@@H](CCCNC(=N)N)C(=O)N2; 100
CC[C@H](C)[C@@H]1NC(=O)[C@@H]2CCCN2C(=O)[C@H](Cc2c[nH]c3ccccc23)NC(=O)[C@H](CCCNC(=N)N)NC(=O)[C@@H](Cc2ccccc2)NC(=O)[C@H](Cc2cnc[nH]2)N(C)C(=O)[C@H]([C@@H](C)O)NC(=O)[C@@H]2CSSC[C@H](NC1=O)C(=O)N[C@@H](Cc1ccccc1)C(=O)N1CCC[C@H]1C(=O)N[C@@H](CC(=O)O)C(=O)NCC(=O)N[C@@H](CCCNC(=N)N)C(=O)N2; 100
CC[C@H](C)[C@@H]1NC(=O)[C@@H]2CCCN2C(=O)[C@H](Cc2c[nH]c3ccccc23)N(C)C(=O)[C@H](CCCNC(=N)N)N(C)C(=O)[C@@H](Cc2ccccc2)NC(=O)[C@H](Cc2cnc[nH]2)NC(=O)[C@H]([C@@H](C)O)NC(=O)[C@@H]2CSSC[C@H](NC1=O)C(=O)N[C@@H](Cc1ccccc1)C(=O)N1CCC[C@H]1C(=O)N[C@@H](CC(=O)O)C(=O)NCC(=O)N[C@@H](CCCNC(=N)N)C(=O)N2; 100
CC[C@H](C)[C@@H]1NC(=O)[C@@H]2CCCN2C(=O)[C@@H]2CCCN2C(=O)[C@H]([C@@H](C)CC)NC(=O)[C@H](CO)NC(=O)[C@H](C)NC(=O)[C@H]([C@H](C)O)NC(=O)[C@@H]2CSSC[C@H](NC1=O)C(=O)N(C)[C@@H](Cc1cnc[nH]1)C(=O)N[C@H](Cc1ccccc1)C(=O)N(C)[C@@H](CCCNC(=N)N)C(=O)N[C@@H](Cc1c[nH]c3ccccc13)C(=O)N[C@@H](CCCNC(=N)N)C(=O)N2; 100
CC[C@H](C)[C@@H]1NC(=O)[C@@H]2CCCN2C(=O)[C@@H]2CCCN2C(=O)[C@H]([C@@H](C)CC)NC(=O)[C@H](CO)NC(=O)[C@H](C)NC(=O)[C@H]([C@H](C)O)NC(=O)[C@@H]2CSSC[C@H](NC1=O)C(=O)N(C)[C@@H](Cc1cnc[nH]1)C(=O)N[C@H](Cc1ccccc1)C(=O)N(C)[C@@H](CCCNC(=N)N)C(=O)N(C)[C@@H](Cc1c[nH]c3ccccc13)C(=O)N[C@@H](CCCNC(=N)N)C(=O)N2; 100
CC[C@H](C)[C@@H]1NC(=O)[C@@H]2CCCN2C(=O)[C@@H]2CCCN2C(=O)[C@H]([C@@H](C)CC)NC(=O)[C@H](CO)NC(=O)[C@H](C)NC(=O)[C@H]([C@H](C)O)NC(=O)[C@@H]2CSSC[C@H](NC1=O)C(=O)N[C@@H](Cc1cnc[nH]1)C(=O)N[C@@H](Cc1ccccc1)C(=O)N[C@@H](CCCNC(=N)N)C(=O)N[C@@H](Cc1c[nH]c3ccccc13)C(=O)N[C@@H](CCCNC(=N)N)C(=O)N2; 100
CC[C@H](C)[C@@H]1NC(=O)[C@@H]2CCCN2C(=O)[C@@H]2CCCN2C(=O)[C@H]([C@@H](C)CC)NC(=O)[C@H](CO)NC(=O)[C@H](C)NC(=O)[C@H]([C@H](C)O)NC(=O)[C@@H]2CSSC[C@H](NC1=O)C(=O)N(C)[C@@H](Cc1cnc[nH]1)C(=O)N[C@H](Cc1ccccc1)C(=O)N[C@@H](CCCNC(=N)N)C(=O)N[C@@H](Cc1c[nH]c3ccccc13)C(=O)N[C@@H](CCCNC(=N)N)C(=O)N2; 100
